Biological target: PHF (tau from Alzheimer's disease donors) (Homo sapiens, UniProt P10636)
Sequence (P10636 623-708 limits assumed): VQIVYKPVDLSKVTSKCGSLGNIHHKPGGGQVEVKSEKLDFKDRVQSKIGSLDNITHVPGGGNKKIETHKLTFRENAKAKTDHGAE
Experiment: Saturation binding of radiolabeled compound to PHF (Kd determination)
Conditions: tau obtained from donors with Alzheimer's disease
measuredProperty: pKd
One number for each entry, as −log10 of the molar value.

Prompt: Quick one: pKd of Cc1ccc2nc3cc(N4CC([18F])C4)ccn3c2c1 [Compound 8] ?
Response: 9.07
